Test system: NCI-H226 lung
assayProtocol: NCI tumour cell line growth inhibition, 48 h
Recorded TGI values for a group of compounds are listed next.

Worked cases, answers included:
COC(CNC(=O)C(C)NC(=O)/C=C/c1ccccc1)OC (centres undefined) = > 100 µM
CN(C)CCCC12CCCCC1=Nc1ccccc12 (centres undefined) = > 100 µM
CC(C)C(=O)OCC1OC(n2c(Br)nc3c(=O)[nH]c(N)nc32)C(OC(=O)C(C)C)C1OC(=O)C(C)C (centres undefined) = > 100 µM
CC(=O)c1[nH]c(NCc2ccccc2)c(C(=S)Nc2ccccc2)c1N = 40.2 µM
CCC(C)OC(=O)/C(Br)=C1/OC(=O)c2ccccc2-c2ccccc21 (centres undefined) = > 100 µM

Which value of TGI has been reported for `Fc1cc(-c2cc(-c3ccccc3)no2)c(Cl)cc1Cl` in the records?
> 23.3 µM

Field entry: CCC(C)COC(=O)c1ccc(N=Cc2ccc(C=Nc3ccc(C(=O)OCC(C)CC)cc3)cc2)cc1 (centres undefined)
> 100 µM

How about this compound: `CN(CC(=O)O)c1ncc2c(n1)CCCC2`
> 100 µM
